Below is a list of entries, each paired with its recorded log10 half-life at 1 µM value.
protocol details: Half life in human liver microsomes at 1 uM by LC-MS analysis
Type: ADME, Microsome
Annotation: log10 of half-life at 1 µM, min basis.

# count of solved cases: 7
1) Cc1ccc(NC(=O)c2occc2C)cc1-c1nc2ncccc2o1 | 0.90
2) O=C(Nc1ccc(F)c(-c2nc3ncccc3o2)c1)c1cnco1 | 2.09
3) O=C(Nc1ccc(Cl)c(-c2nc3ncccc3o2)c1)c1ccco1 | 0.85
4) Cc1ccoc1C(=O)Nc1cccc(-c2nc3ncccc3o2)c1 | 1.00
5) Cc1ccoc1C(=O)Nc1ccc(F)c(-c2nc3ncccc3o2)c1 | 0.95
6) O=C(Nc1ccc(F)c(-c2nc3ncccc3o2)c1)c1ccoc1 | 1.04
7) O=C(Nc1ccc(F)c(-c2nc3ncccc3o2)c1)c1cscn1 | 1.56

Field log10 half-life at 1 µM (entry Cc1ccc(NC(=O)c2ccoc2)cc1-c1nc2ncccc2o1 ) reads 1.00
